# Test system: hsa-mir-221 loop
# Assay details: normalised indicator fluorescence (fraction of RNA + indicator signal without compound); higher = less displacement of indicator (weaker competition)
# Test settings: compound concentration: 5 uM; 30 min; indicator: TO-PRO-3 0.5 uM; RNA concentration: 0.5 uM

Compound	normalised indicator fluorescence
Fc1ccc(-c2nc3n(c2-c2ccncc2)CCS3)cc1	1.13
[I-].[K+] [Potassium iodide]	1.03
COc1c(C)cnc(Cn2cnc3c(Cl)nc(N)nc32)c1C	1.06
C[C@H](CCC(=O)NCCS(=O)(=O)O)[C@H]1CC[C@H]2[C@@H]3[C@@H](O)C[C@@H]4C[C@H](O)CC[C@]4(C)[C@H]3CC[C@]12C	1.05
CNC(=O)c1ccc(C)c(-n2c(C)cc(OCc3ccc(F)cc3F)c(Br)c2=O)c1	1.05

---

# System: hsa-mir-221 loop
# Assay details: normalised indicator fluorescence (fraction of RNA + indicator signal without compound); higher = less displacement of indicator (weaker competition)
# Test settings: compound concentration: 5 uM; 30 min; indicator: TO-PRO-3 0.5 uM; RNA concentration: 0.5 uM
Where a name gives a salt, the structure may show the parent alone.
Parameter threshold = 1. Response is class 1 when normalised indicator fluorescence meets or exceeds it, else class 0.

Compound	Measured target	Label class
Cc1c(C)c2c(c(C)c1O)CC[C@@](C)(CCC[C@H](C)CCC[C@H](C)CCCC(C)C)O2 [Vitamin E]	hsa-mir-221 loop	class 1
CCNC(=O)c1noc(-c2cc(C(C)C)c(O)cc2O)c1-c1ccc(CN2CCOCC2)cc1 [Luminespib]	hsa-mir-221 loop	class 1
O=C(O)/C=C/c1ccc(Cn2ccnc2)cc1 [Ozagrel hydrochloride]	hsa-mir-221 loop	class 0
CN1CCN(c2ccc(C(=O)Nc3n[nH]c4ccc(Cc5cc(F)cc(F)c5)cc34)c(NC3CCOCC3)c2)CC1 [Entrectinib]	hsa-mir-221 loop	class 1
Cc1c(F)cc(C(=O)NC2CC2)cc1-c1ccc(C(=O)NCC(C)(C)C)cn1 [Losmapimod]	hsa-mir-221 loop	class 1
CN(C)C[C@@H]1CCn2cc(c3ccccc32)C2=C(C(=O)NC2=O)c2cn(c3ccccc23)CCO1 [Ruboxistaurin hydrochloride]	hsa-mir-221 loop	class 1
Cn1cc(C2=C(c3cn(CCCSC(=N)N)c4ccccc34)C(=O)NC2=O)c2ccccc21 [Ro 31-8220 Mesylate]	hsa-mir-221 loop	class 0
CC(C)(O)[C@@H]1CC[C@](C)([C@H]2[C@@H](O)C[C@@]3(C)[C@@H]4C[C@H](O)[C@H]5C(C)(C)[C@@H](O[C@@H]6OC[C@@H](O)[C@H](O)[C@H]6O[C@@H]6O[C@H](CO)[C@@H](O)[C@H](O)[C@H]6O)CC[C@@]56C[C@@]46CC[C@]23C)O1 [Astragaloside III]	hsa-mir-221 loop	class 1
COC(=O)C1=CC[C@@]23CC[C@@H]([C@@](C)(/C=C/C=C(\C)C(=O)O)OC2=O)[C@@]3(OC(C)=O)CC1 [Pseudolaric Acid B]	hsa-mir-221 loop	class 0
O=c1c(O)c(-c2ccccc2)oc2cc(O)cc(O)c12 [Galangin]	hsa-mir-221 loop	class 1

---

# Lookup of reported normalised indicator fluorescence keyed by entry
# Tested on: hsa-mir-21 loop
# Assay details: normalised indicator fluorescence (fraction of RNA + indicator signal without compound); higher = less displacement of indicator (weaker competition)
# Test settings: compound concentration: 5 uM; 30 min; indicator: TO-PRO-3 0.5 uM; RNA concentration: 0.5 uM
Observed property: normalised indicator fluorescence

Compound	Number
N#CC(c1ccnc(OCc2ccc(CN3CCOCC3)cc2)n1)c1nc2ccccc2s1 (stereo not drawn)	0.839
O=C(Nc1ccc2[nH]nc(-c3ccncc3)c2c1)[C@@H]1CCN(CC(=O)N2CCN(c3ccc(-c4ncccn4)cc3)CC2)C1	1
CC(C)=CCC[C@](C)(O[C@@H]1O[C@H](CO)[C@@H](O)[C@H](O)[C@H]1O)[C@H]1CC[C@]2(C)[C@@H]1[C@H](O)C[C@@H]1[C@@]3(C)CC[C@H](O)C(C)(C)[C@@H]3[C@@H](O[C@@H]3O[C@H](CO)[C@@H](O)[C@H](O)[C@H]3O[C@@H]3OC[C@@H](O)[C@H](O)[C@H]3O)C[C@]12C [Notoginsenoside R1]	0.991

---

# Test system: hsa-mir-374a loop
# Assay details: normalised indicator fluorescence (fraction of RNA + indicator signal without compound); higher = less displacement of indicator (weaker competition)
# Test settings: compound concentration: 5 uM; 30 min; indicator: TO-PRO-1 0.1 uM; RNA concentration: 0.1 uM

Compound	normalised indicator fluorescence
CCNC(=O)c1[nH]nc(-c2cc(Cl)c(O)cc2O)c1-c1ccc(OC)cc1	1.11
O=c1c(O)c(-c2ccccc2)oc2cc(O)cc(O)c12 [Galangin]	1.11
OC[C@H]1O[C@@H](Oc2ccc(O)cc2)[C@H](O)[C@@H](O)[C@@H]1O [Arbutin]	1.13
COC1=CC(=O)c2ccccc2C1=O [2-Methoxynaphthoquinone]	1.14
C[C@H]1Oc2cc(cnc2N)-c2c(nn(C)c2C#N)CN(C)C(=O)c2ccc(F)cc21 [Lorlatinib]	1.08
COC(=O)c1ccc([C@H]2c3[nH]c4ccccc4c3C[C@H](C(=O)OC)N2C(=O)CCl)cc1	1.01
C[C@@H]1O[C@@H](O[C@@H]2[C@@H](O)[C@H](OCCc3ccc(O)c(O)c3)O[C@H](CO)[C@H]2OC(=O)/C=C/c2ccc(O)c(O)c2)[C@H](O)[C@H](O)[C@H]1O [Verbascoside]	1.46
O=C(/C=C/C=C/c1ccc2c(c1)OCO2)N1CCCCC1 [Piperine]	1.16
CC(C)OC(=O)CCC/C=C\C[C@@H]1[C@@H](CC[C@@H](O)CCc2ccccc2)[C@H](O)C[C@@H]1O [Latanoprost]	1.01
CN1CCN(c2nc(C3=C(c4c[nH]c5ccccc45)C(=O)NC3=O)c3ccccc3n2)CC1 [Sotrastaurin]	1.19
CC(C)(O)[C@@H]1CC[C@](C)([C@H]2[C@@H](O)C[C@@]3(C)[C@@H]4C[C@H](O)[C@H]5C(C)(C)[C@@H](O[C@@H]6OC[C@@H](O)[C@H](O)[C@H]6O[C@@H]6O[C@H](CO)[C@@H](O)[C@H](O)[C@H]6O)CC[C@@]56C[C@@]46CC[C@]23C)O1 [Astragaloside III]	1.04
CCc1cc(C(N)=S)ccn1 [Ethinamide]	1.18
O=c1c(O)c(-c2cc(O)c(O)c(O)c2)oc2cc(O)cc(O)c12 [Myricetin]	0.543
O=[N+]([O-])c1ccc(-c2nc(-c3ccc(F)cc3)c(-c3ccncc3)[nH]2)cc1	1.59
COc1ccc([C@@H]2OC[C@H]3[C@@H]2CO[C@@H]3c2ccc(O[C@@H]3O[C@H](CO)[C@@H](O)[C@H](O)[C@H]3O)c(OC)c2)cc1OC [Forsythin]	1.09

---

# Lookup of reported normalised indicator fluorescence keyed by entry
# Test system: hsa-mir-374a loop
# Assay details: normalised indicator fluorescence (fraction of RNA + indicator signal without compound); higher = less displacement of indicator (weaker competition)
# Test settings: compound concentration: 5 uM; 30 min; indicator: TO-PRO-3 0.5 uM; RNA concentration: 0.5 uM
Observed property: normalised indicator fluorescence

Compound	Measured target	Observed property	Number
COc1c(C)cnc(Cn2cnc3c(Cl)nc(N)nc32)c1C	hsa-mir-374a loop	normalised indicator fluorescence	1.09
NNC(=O)c1ccncc1 [Isoniazid]	hsa-mir-374a loop	normalised indicator fluorescence	1.07
O=c1ccc2ccc(O)c(O)c2o1 [Daphnetin]	hsa-mir-374a loop	normalised indicator fluorescence	1.03
CC1(C)C=Cc2c(ccc3c2OC[C@@H](c2ccc(O)cc2O)C3)O1 [Glabridin]	hsa-mir-374a loop	normalised indicator fluorescence	1.2
O=C(O)C(O)Cc1ccc(O)c(O)c1 (stereo unspecified) [Sodium Danshensu]	hsa-mir-374a loop	normalised indicator fluorescence	0.994
CC(C)c1cc(-c2n[nH]c(=O)n2-c2ccc3c(ccn3C)c2)c(O)cc1O [Ganetespib]	hsa-mir-374a loop	normalised indicator fluorescence	1.14

---

# Test system: hsa-mir-6850 loop
# Assay details: normalised indicator fluorescence (fraction of RNA + indicator signal without compound); higher = less displacement of indicator (weaker competition)
# Test settings: compound concentration: 5 uM; 30 min; indicator: TO-PRO-1 0.1 uM; RNA concentration: 0.1 uM
Parameter threshold = 1. Response is True when normalised indicator fluorescence meets or exceeds it, else False.

Compound	Label class
Cc1cc(C(C)(C)C)c(O)c(C(C)(C)C)c1	False
O=c1ncn2nc(Sc3ccc(F)cc3F)ccc2c1-c1c(Cl)cccc1Cl	False
O=C(/C=C/C=C/c1ccc2c(c1)OCO2)N1CCCCC1	True
Nc1c(Br)cc(Br)cc1CN[C@H]1CC[C@H](O)CC1	False
O=C(NC(Cc1cc(=O)[nH]c2ccccc12)C(=O)O)c1ccc(Cl)cc1 (stereo unspecified) [Rebamipide]	True

---

# Tested on: hsa-mir-374a loop
# Assay details: normalised indicator fluorescence (fraction of RNA + indicator signal without compound); higher = less displacement of indicator (weaker competition)
# Test settings: compound concentration: 5 uM; 30 min; indicator: TO-PRO-3 0.5 uM; RNA concentration: 0.5 uM
Counter-ions that a name gives are not always drawn.

Compound	normalised indicator fluorescence
Oc1ccc(-c2nc(-c3ccc(F)cc3)c(-c3ccncc3)[nH]2)cc1	1.2
CC1=C[C@]2(O)O[C@@]3(CC2=C(C)C)[C@@H](C)CC[C@@H]13	1.33
Nc1ncnc2c1ncn2[C@@H]1O[C@H](CO)[C@@H](O)[C@@H]1O	1.15
COC1=C(OC)C(=O)C(CCCCCCCCCCO)=C(C)C1=O	1.03
N=C(NCCCCCCNC(=N)NC(=N)Nc1ccc(Cl)cc1)NC(=N)Nc1ccc(Cl)cc1 [Chlorhexidine hydrochloride]	1.05
N=C(NCCCCCCNC(=N)NC(=N)Nc1ccc(Cl)cc1)NC(=N)Nc1ccc(Cl)cc1 [Chlorhexidine]	1.05
Nc1c(Br)cc(Br)cc1CN[C@H]1CC[C@H](O)CC1	1.12
CNc1ccc([N+](=O)[O-])c(Nc2ccc3[nH]ncc3c2)n1	1.35
O=c1ccc2ccc(O)cc2o1 [7-Hydroxycoumarin]	1.15
CO[C@@H]1[C@H](N(C)C(=O)c2ccccc2)C[C@H]2O[C@]1(C)n1c3ccccc3c3c4c(c5c6ccccc6n2c5c31)C(=O)NC4	1.43
C[C@H]1[C@H](C)CC[C@]2(C(=O)O)CC[C@]3(C)C(=CC[C@@H]4[C@@]5(C)C[C@@H](O)[C@H](O)[C@@](C)(CO)[C@@H]5CC[C@]43C)[C@H]12	1.06
Cc1c(F)cc(C(=O)NC2CC2)cc1-c1ccc(C(=O)NCC(C)(C)C)cn1	1.13
O=C1O[C@H]([C@@H](O)CO)C(O)=C1O [L(+)-Ascorbic acid]	1.12
CO[C@H]1/C=C/O[C@@]2(C)Oc3c(C)c(O)c4c(c3C2=O)C2=NC3(CCN(CC(C)C)CC3)NC2=C(NC(=O)/C(C)=C\C=C\[C@H](C)[C@H](O)[C@@H](C)[C@@H](O)[C@@H](C)[C@H](OC(C)=O)[C@@H]1C)C4=O	1.04
Oc1cc(O)c2c(c1)O[C@H](c1ccc(O)c(O)c1)[C@@H](O)C2 [(+)-Catechin Hydrate]	1.22
O=c1ncn2nc(Sc3ccc(F)cc3F)ccc2c1-c1c(Cl)cccc1Cl	1.3
